Provide the reported Anti-PSMA Fab (SEQ ID NOs: 19, 20) signal of each item.
Target: T1, Anti-PSMA Fab (SEQ ID NOs: 19, 20)
T1 construct: In the phage ELISA the Fab was biotinylated and captured on neutravidin coated plates; also called 006 PSMA Fab
Test: phage binding ELISA; biotinylated PSMA Fab captured on neutravidin plate, bound phage detected with anti-M13-HRP
Where no end group is shown, it is not given here.
The response must contain the number and no unit.

Consider the binder shown here: LGNWCIPEWMCYGM (cysteine pairing not given here; also: fused to phage pIII (clonal phage display), Clonal phage of the Peptide-180 library) [Phage-2099] What is its recorded Anti-PSMA Fab (SEQ ID NOs: 19, 20) signal?
1.73

Data request, read-out Anti-PSMA Fab (SEQ ID NOs: 19, 20) signal, for VETWCTPRWMCEGF (Clonal phage of the Peptide-180 library) [Phage-2093]
1.74

Need Anti-PSMA Fab (SEQ ID NOs: 19, 20) signal of VEKWCIPTWMCQAM (cysteine pairing not given here; also: fused to phage pIII, pIII sequence and linker not given here, Clonal phage of the Peptide-180 library) [Phage-2089] , thanks.
1.74

Please look up its Anti-PSMA Fab (SEQ ID NOs: 19, 20) signal: IPKLCKPSWMCLFY (Clonal phage of the Peptide-180 library) [Phage-2098]
1.73

Quick one: Anti-PSMA Fab (SEQ ID NOs: 19, 20) signal for ETRWCVPEWMCYGI (cysteine pairing not given here; also: fused to phage pIII, pIII sequence and linker not given here, Clonal phage of the Peptide-180 library) [Phage-2091] ?
1.74

Could you share which Anti-PSMA Fab (SEQ ID NOs: 19, 20) signal value was measured for EAKWCIPAWMCSGV (Clonal phage of the Peptide-180 library) [Phage-2101] ?
1.73

Fill in the blank: the reported Anti-PSMA Fab (SEQ ID NOs: 19, 20) signal of QGIMCIPEWMCSAI (Clonal phage of the Peptide-180 library) [Phage-2097] is ____.
1.73

Tell me the measured Anti-PSMA Fab (SEQ ID NOs: 19, 20) signal of PDHWCIPSWMCMSQ (Clonal phage of the Peptide-180 library) [Phage-2096] , please.
1.74

# query: Anti-PSMA Fab (SEQ ID NOs: 19, 20) signal of entry FEKWCIPSWMCSGP (cysteine pairing not given here; also: fused to phage pIII, pIII sequence and linker not given here, Clonal phage of the Peptide-180 library) [Phage-2087]
1.75
